Experiment Notes: ATG_NFI_CIS: Attagene CIS-FACTORIAL HepG2 Assay for human Nuclear Factor I (NFI) (AID 2282989)
Condition Label: HepG2 cis-regulatory reporter, NFI response element transcription; actives raise or lower the signal
Experimental: ATG_CIS is a cell-based, multiplexed-readout assay that uses HepG2, a human liver cell line, with measurements taken at 24 hours after chemical dosing in a 24-well plate.ATG_NFI_CIS is one of 52 assay component(s) measured or calculated from the ATG_CIS assay. […] This assay endpoint, ATG_NFI_CIS, was analyzed with bidirectional fitting relative to DMSO as the negative control and baseline of activity. […]
The source made the active and inactive calls. Rule for the calls: active = hit-call score of the fitted dose curve at least 0.9, where 1 is the maximum; inactive = score below 0.9.
Outcomes: class 1 (active), class 0 (inactive)

Compound	Assigned Category
COc1cccc([C@H](O)C2CCN(CCc3ccc(F)cc3)CC2)c1OC	class 0
CCCCCCCCCC(=O)O	class 0
CCN(Cc1cccnc1)C(=O)c1cccc(Cl)c1[C@]1(C)C(=O)N(Cc2ccc(OC)cc2OC)c2ccc(Cl)cc21	class 0
CCCCCCCCCCCO	class 0
Cc1oc2c(NC(=O)c3c(Cl)cccc3Cl)cccc2c1C(C)(C)O	class 0
O=C=NCCCCCCN=C=O	class 0
CCCCCc1ccc(N)cc1	class 0
Cc1cccc2ccccc12	class 0
CCOC(=O)O[C@H](C)OC(=O)c1ccc2c(c1)cc(C(=O)NC1CCN(C(C)C)CC1)n2Cc1cc(-c2ccc(Cl)s2)on1	class 0
CC[C@H](NC(=O)c1cc(F)ccc1NS(=O)(=O)c1cccc2cccnc12)c1ccccc1	class 0
Cc1cc2c(cc1C(F)(F)F)N(C(=O)Nc1ccc(Oc3cccnc3C)nc1)CC2	class 0
CC(=O)N1CCN(c2ccc(OC[C@H]3CO[C@](Cn4ccnc4)(c4ccc(Cl)cc4Cl)O3)cc2)CC1	class 0
CC1=CC(=O)/C(=C(/C)O)C(=O)O1	class 0
CN1C(=O)CC[C@H]1c1cccnc1	class 0
CC(C)(C)c1csc(-c2cc3cc(OCc4ccccc4CC(=O)O)ccc3o2)n1	class 0
CCN(CC)C(=O)c1cc(S(=O)(=O)Cc2ccccc2)c(N2CCC(c3ccccc3)CC2)cc1N(CC)CCN(C)C	class 0
COCC(C)OCC(C)OCC(C)O (stereo unspecified)	class 0
O=C(O)Cc1cc(I)c(Oc2ccc(O)c(I)c2)c(I)c1	class 0
O=C1O[C@H]([C@@H](O)CO)C(O)=C1O	class 0
O=CCCCC=O	class 0
CC(C)(O)c1ccc(CNC(=O)c2cccnc2Oc2ccc3nonc3c2)cc1	class 0
CCN(Cc1cccc(S(=O)(=O)O)c1)c1ccc(C(=C2C=CC(=[N+](CC)Cc3cccc(S(=O)(=O)O)c3)C=C2)c2ccccc2S(=O)(=O)[O-])cc1	class 0
c1ccc2n[nH]nc2c1	class 0
NCc1cccc(C2CCN(C(=O)c3ccc(C#Cc4ccccc4F)o3)CC2)c1	class 0
O=C(O)Cn1c(=O)n(Cc2ccc(Br)cc2F)c(=O)c2ccc(Cl)cc21	class 0
Cc1ncc(CO)c(CO)c1O	class 0
CN1C(=O)N(c2ccccc2Br)Cc2cnc(Nc3ccc4c(c3)OCC(CO)O4)nc21 (stereo unspecified)	class 0
Clc1cc(Cl)c2c(c1)N=C1CCCCCN1C2	class 0
CO[C@H]1/C=C/O[C@@]2(C)Oc3c(C)c(O)c4c(O)c(c(/C=N/N5CCN(C)CC5)c(O)c4c3C2=O)NC(=O)/C(C)=C\C=C\[C@H](C)[C@H](O)[C@@H](C)[C@@H](O)[C@@H](C)[C@H](OC(C)=O)[C@@H]1C	class 0
Clc1ccccc1C(c1ccccc1)(c1ccccc1)n1ccnc1	class 0
CCCCCCCCCCCC[N+](C)(C)C	class 0
O=C(O)c1ccccc1C(=O)OCc1ccccc1	class 0
NC(=O)c1nc(-c2cccc(-c3cc(F)ccc3OCC(F)(F)C(F)(F)F)c2)n[nH]1	class 0
O=c1[nH]sc2ccccc12	class 1
O=C(Nc1ccc(Cl)cc1)Nc1ccc(Cl)c(Cl)c1	class 0
O=C1CCC(C2CCCCC2)CC1	class 0
